The values you see were collected from ChEMBL document CHEMBL1144767.

- assayed.target: Luciferin 4-monooxygenase (Photinus pyralis)
- Sequence (P08659 whole entry): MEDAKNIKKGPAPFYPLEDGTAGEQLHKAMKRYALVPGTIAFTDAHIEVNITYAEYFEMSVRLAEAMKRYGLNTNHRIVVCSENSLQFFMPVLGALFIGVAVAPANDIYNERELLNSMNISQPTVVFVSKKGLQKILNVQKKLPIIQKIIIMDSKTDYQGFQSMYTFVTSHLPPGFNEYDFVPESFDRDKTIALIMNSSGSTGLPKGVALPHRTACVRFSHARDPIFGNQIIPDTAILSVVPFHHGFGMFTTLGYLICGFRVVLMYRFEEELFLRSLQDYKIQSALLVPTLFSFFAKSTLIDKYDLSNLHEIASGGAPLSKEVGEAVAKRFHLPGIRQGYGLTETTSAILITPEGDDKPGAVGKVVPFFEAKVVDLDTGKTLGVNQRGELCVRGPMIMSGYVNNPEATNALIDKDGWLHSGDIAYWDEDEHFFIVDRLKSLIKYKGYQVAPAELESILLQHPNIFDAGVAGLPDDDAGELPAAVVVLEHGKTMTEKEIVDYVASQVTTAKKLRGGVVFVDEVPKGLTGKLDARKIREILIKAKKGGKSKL
- test.description: Inhibition of Photinus pyralis luciferase by Steady-Glo reporter gene assay
pIC50: −log10 of the molar value.
assay.metric: pIC50

{"compound": "Cc1ccc(C(=O)Nc2nc3ccc(S(C)(=O)=O)cc3s2)s1", "assayed.target": "Luciferin 4-monooxygenase (Photinus pyralis)", "inequality.sign": "=", "endpoint.result": 5.00}
{"compound": "O=c1cc(-c2ccccc2O)oc2ccc3ccccc3c12", "assayed.target": "Luciferin 4-monooxygenase (Photinus pyralis)", "inequality.sign": "=", "endpoint.result": 7.22}
{"compound": "COc1cccc(-c2cc(=O)c3ccccc3o2)c1N", "assayed.target": "Luciferin 4-monooxygenase (Photinus pyralis)", "inequality.sign": "<", "endpoint.result": 4.00}
{"compound": "Brc1ccc(-c2nc(-c3ccccn3)no2)o1", "assayed.target": "Luciferin 4-monooxygenase (Photinus pyralis)", "inequality.sign": "=", "endpoint.result": 5.59}
{"compound": "O=C(/C=C\\Nc1cccc(F)c1)c1ccc2c(c1)OCO2", "assayed.target": "Luciferin 4-monooxygenase (Photinus pyralis)", "inequality.sign": "=", "endpoint.result": 6.05}
{"compound": "C[C@@H](C(=O)O)c1ccc(N2Cc3ccccc3C2=O)cc1 [(R)-INDOPROFEN]", "assayed.target": "Luciferin 4-monooxygenase (Photinus pyralis)", "inequality.sign": "=", "endpoint.result": 5.00}
{"compound": "Cc1ccc(C(=O)Cn2c3c(sc2=N)CCCC3)cc1", "assayed.target": "Luciferin 4-monooxygenase (Photinus pyralis)", "inequality.sign": "=", "endpoint.result": 5.55}
{"compound": "CC(C)(C)C(=O)Nc1ccc(NC(=O)c2cccc(O)c2)nc1", "assayed.target": "Luciferin 4-monooxygenase (Photinus pyralis)", "inequality.sign": "=", "endpoint.result": 6.10}
{"compound": "COc1ccc(C(=O)NC(=O)Nc2cc(C)ccn2)cc1", "assayed.target": "Luciferin 4-monooxygenase (Photinus pyralis)", "inequality.sign": "=", "endpoint.result": 5.92}
{"compound": "CS(=O)(=O)c1ccc2nc(NC(=O)c3cccs3)sc2c1", "assayed.target": "Luciferin 4-monooxygenase (Photinus pyralis)", "inequality.sign": "=", "endpoint.result": 5.60}
{"compound": "CN1CCN(C(=O)COc2ccc(-c3nc4ccccc4s3)cc2)CC1", "assayed.target": "Luciferin 4-monooxygenase (Photinus pyralis)", "inequality.sign": "=", "endpoint.result": 6.00}
{"compound": "CCN(CC)c1ccc2cc(-c3nc4ccccc4[nH]3)c(=O)oc2c1", "assayed.target": "Luciferin 4-monooxygenase (Photinus pyralis)", "inequality.sign": "=", "endpoint.result": 6.92}
